Tested on: SF-295 CNS
Test: NCI-60 one-dose screen, 48 h
Settings: 10 µM unless noted
Compounds without any hit were thinned out: in the full panel of roughly 83,000, 20% have a hit. Active and inactive are the calls of the source. How the source made its calls: active means growth percent below 10; inactive means the rest.
Possible outcomes: label 1 for active, label 0 for inactive

compound="C#Cc1nc(C2=C(C)C(O)CC2)cs1 (configuration not stated)" assigned_class="label 0"
compound=COc1ccc(/C=N/NC(=O)c2[nH]c3ccc(Br)cc3c2-c2ccccc2)s1 assigned_class="label 0"
compound=[Cl][Ru].c1ccc(-c2cccc(-c3ccccn3)n2)nc1.c1ccc(-c2ccnc3c2ccc2c(-c4ccccc4)ccnc23)cc1 assigned_class="label 0"
compound=Cn1c(SCC(=O)c2cccs2)nc2ccccc2c1=O assigned_class="label 0"
compound=Cn1ccnc1C(=O)/C=C/c1ccc(NC(=O)Nc2ccccc2)cc1 assigned_class="label 1"
compound=O=C(CSc1nnc(-c2ccc3nc(-c4ccc(Cl)cc4)[nH]c3c2)o1)Nc1ccc(C(=O)/C=C/c2ccc(Cl)cc2)cc1 assigned_class="label 0"
compound=O=C(CCN1C(=O)/C(=C/c2ccccc2)SC1=S)N1CCOCC1 assigned_class="label 0"
compound="CC(O)C(NC(=O)C1CCCN1C(=O)CNC(=O)C1CC(=O)NCC(=O)NC(Cc2c[nH]c3ccccc23)C(=O)NC(Cc2ccc(O)cc2)C(=O)NCC(=O)NC(CO)C(=O)NC(CCC(N)=O)C(=O)NC(Cc2c[nH]c3ccccc23)C(=O)N1)C(=O)NCC(=O)NC(CCC(N)=O)C(=O)NC(CCCNC(=N)N)C(=O)NC(CC(=O)O)C(=O)O (configuration not stated)" assigned_class="label 0"
compound=N#Cc1c(-c2ccc(F)cc2)nc2c(C#N)c(Nc3ccccc3)nn2c1N assigned_class="label 0"
compound=CO/N=C1\CCc2c(sc(NC(=O)c3cccc(C(F)(F)F)c3)c2C(N)=O)C1 assigned_class="label 0"
compound=COc1ccc(/C=N/Nc2ccnc3cc(Cl)ccc23)cc1Cl assigned_class="label 1"
compound=COc1ccc(NC2=CC(=O)C(C)=C(C)C2=O)cc1 assigned_class="label 0"
compound="CCCC(=O)NC(c1ccc2c(c1)OC(F)(F)O2)c1cc(C)c2cccnc2c1O (configuration not stated)" assigned_class="label 0"
compound=NS(=O)(=O)c1ccc(Nc2nc(Nc3ccccc3)nc(-n3nc(-c4ccccc4)cc3-c3ccccc3)n2)cc1 assigned_class="label 0"
compound=COc1ccccc1C(=O)CSc1nc(Nc2ccc(S(N)(=O)=O)cc2)c2ccccc2n1 assigned_class="label 0"
compound=COc1cc(N=Cc2sc(Nc3nccs3)nc2O)cc(OC)c1OC assigned_class="label 0"
compound=Cc1nc(-c2cc3ccccc3oc2=O)ccc1C(=O)/C=C/c1ccc(N2CCOCC2)cc1 assigned_class="label 0"
compound=Nc1c(C(=O)Nc2ccc(Cl)cc2)sc2nc(-c3cnccn3)cc(-c3cccs3)c12 assigned_class="label 0"
compound=Cc1ccc2c(n1)C(=O)C(Cl)=C(Nc1cccc(C(C)C)c1)C2=O assigned_class="label 0"
compound=CCOC(=O)c1c(Nc2ccccc2)nn2c(N)c(C#N)c(-c3ccc(Cl)cc3)nc12 assigned_class="label 0"
compound=C/C(=C(/c1ccc(Cl)cc1)c1ccc(OCCN)cc1)c1ccc(C)cc1 assigned_class="label 0"
compound=CC(C)(C)Nc1nc2c(OCCc3ccccc3)cccn2c1-c1ccc(Cl)cc1 assigned_class="label 1"
compound=COc1cc(-c2nc3ccc(-c4nnc(SCC(=O)Nc5ccc(C(=O)/C=C/c6ccc(Cl)cc6)cc5)o4)cc3[nH]2)cc(OC)c1OC assigned_class="label 0"
compound=O=C(NNc1nc2cc(F)ccc2n2c(CN3CC4(COC4)C3)ccc12)c1cnccn1 assigned_class="label 0"
compound=Clc1ccc2c(NCCCN3CCOCC3)c3oc4ccc(Cl)cc4c3nc2c1 assigned_class="label 0"
compound=COc1ccc(-c2nc3ccc(-c4nnc(SCC(=O)Nc5ccc(C(=O)/C=C/c6ccc(Cl)cc6)cc5)o4)cc3[nH]2)cc1OC assigned_class="label 0"
compound=N#Cc1nc(-c2ccccc2)oc1S(N)(=O)=O assigned_class="label 0"
compound="COC1CCN(Cc2ccc3c(NNC(=O)c4cnccn4)nc4cc(F)ccc4n23)C1 (configuration not stated)" assigned_class="label 0"
compound="COc1ccc([C@@H]2c3[nH]c4ccccc4c3CC3C(=O)N(C4CCN(Cc5c(F)cccc5F)CC4)CC(=O)N32)c(OC)c1 (some centres not stated)" assigned_class="label 0"
compound=CCN(CC)c1ccc(C=O)c(OCc2cn(CC(=O)Nc3ccc(Cl)cc3)nn2)c1 assigned_class="label 0"
compound="CCN1C(=S)N(c2ccccc2)C2NC(=O)N(/N=C/C=C/c3ccccc3OC)C21 (configuration not stated)" assigned_class="label 0"
compound=N#Cc1nc(-c2ccccc2)oc1S(=O)(=O)N1CCN(CCc2ccccn2)CC1 assigned_class="label 0"
compound=Clc1ccc2c(NCCCN3CCOCC3)c3oc4ccccc4c3nc2c1 assigned_class="label 0"
compound=CC(=O)Oc1ccccc1C(=O)Nc1ccc(C(=O)/C=C/c2ccncc2)cc1 assigned_class="label 0"
compound=C=CCn1c(SCC(=O)c2ccc(Br)cc2)nnc1-c1c[nH]c2ccccc12 assigned_class="label 0"
compound="O=C1Nc2ccccc2Oc2ccc(S(=O)(=O)CC3CO3)cc21 (configuration not stated)" assigned_class="label 0"
compound=CCOC(=O)c1c(NC(=O)c2cccc(C(F)(F)F)c2)sc2cc(O)ccc12 assigned_class="label 0"
